- PROCEDURE TEXT: Ocular biodistribution study following ocular administration
- Type: in vivo, Dutch-Belted rabbits
- MEASUREMENT PARAMETERS: male, Dutch-Belted, rabbit, posterior sclera and choroid, other: ocular administration, 0.08 mg/eye, formulation G, 0.08 mg/eye once, 3 hrs, An#108 left eye; read-out: Squalamine in posterior sclera and choroid
RESULT TYPE: concentration at 3 h (ng/g)
# number only, unit ng/g dropped from output

If you can, please state the reported concentration at 3 h value of `CC(C)[C@@H](CC[C@@H](C)[C@H]1CC[C@H]2[C@@H]3[C@H](O)C[C@H]4C[C@@H](NCCCNCCCCN)CC[C@]4(C)[C@H]3CC[C@]12C)OS(=O)(=O)O` .
26
